- Recorded conditions: in ethyl acetate, 308.15 K
Assay metric: solubility (mole fraction)
Answer with a bare number; do not write a unit.

Form field solubility (mole fraction), entry N#Cc1c(Cl)c(Cl)c(Cl)c(C#N)c1Cl : 0.00543

* * *

- Recorded conditions: in 1,4-dioxane, 318.15 K
Assay metric: solubility (mole fraction)
// print number alone

get_value(item= N#Cc1c(Cl)c(Cl)c(Cl)c(C#N)c1Cl , readout=solubility (mole fraction)) returns 0.0177

* * *

- Recorded conditions: in DMF, 303.15 K
Assay metric: solubility (mole fraction)
# respond with the number and nothing more

# solubility (mole fraction) (molecule: N#Cc1c(Cl)c(Cl)c(Cl)c(C#N)c1Cl ) is 0.0142

* * *

- Recorded conditions: in acetonitrile, 318.15 K
Assay metric: solubility (mole fraction)
Please reply with the value in numeric form only.

For N#Cc1c(Cl)c(Cl)c(Cl)c(C#N)c1Cl the compound record lists solubility (mole fraction) as 0.00413

* * *

- Recorded conditions: in cyclohexanone, 308.15 K
Assay metric: solubility (mole fraction)
The answer should be a number; do not append a unit.

According to the records, this compound N#Cc1c(Cl)c(Cl)c(Cl)c(C#N)c1Cl displays solubility (mole fraction) of 0.0135

* * *

- Recorded conditions: in ethyl acetate, 323.15 K
Assay metric: solubility (mole fraction)
Just the number.

Lookup result for N#Cc1c(Cl)c(Cl)c(Cl)c(C#N)c1Cl ; measured solubility (mole fraction): 0.00893

* * *

- Recorded conditions: in acetone, 288.15 K
Assay metric: solubility (mole fraction)
Give your answer as a number; write no unit.

Recorded result, N#Cc1c(Cl)c(Cl)c(Cl)c(C#N)c1Cl , solubility (mole fraction): 0.00369

* * *

- Recorded conditions: in acetone, 313.15 K
Assay metric: solubility (mole fraction)
Give the figure by itself; no unit, no explanation.

Lab note: N#Cc1c(Cl)c(Cl)c(Cl)c(C#N)c1Cl gave solubility (mole fraction) of 0.00779

* * *

- Recorded conditions: in 1,4-dioxane, 323.15 K
Assay metric: solubility (mole fraction)
Give the figure only, with no unit attached.

// solubility (mole fraction) lookup, compound = N#Cc1c(Cl)c(Cl)c(Cl)c(C#N)c1Cl , result: 0.0215

* * *

- Recorded conditions: in acetone, 323.15 K
Assay metric: solubility (mole fraction)
I only need the number, thanks.

Entry N#Cc1c(Cl)c(Cl)c(Cl)c(C#N)c1Cl ; solubility (mole fraction) = 0.0113

* * *

- Recorded conditions: in DMAc, 313.15 K
Assay metric: solubility (mole fraction)
Give only the figure.

The compound listed as N#Cc1c(Cl)c(Cl)c(Cl)c(C#N)c1Cl has a reported solubility (mole fraction) of 0.03

* * *

- Recorded conditions: in MIBK, 298.15 K
Assay metric: solubility (mole fraction)

compound N#Cc1c(Cl)c(Cl)c(Cl)c(C#N)c1Cl , solubility (mole fraction) observed: 0.00509

* * *

- Recorded conditions: in ethyl acetate, 293.15 K
Assay metric: solubility (mole fraction)
A bare number is all that is needed in reply.

Recorded result, N#Cc1c(Cl)c(Cl)c(Cl)c(C#N)c1Cl , solubility (mole fraction): 0.00374

* * *

- Recorded conditions: in DMF, 313.15 K
Assay metric: solubility (mole fraction)
Number only, please.

So for N#Cc1c(Cl)c(Cl)c(Cl)c(C#N)c1Cl , the logged solubility (mole fraction) turned out to be 0.0177

* * *

- Recorded conditions: in THF, 308.15 K
Assay metric: solubility (mole fraction)
The answer should be a number; do not append a unit.

Item: N#Cc1c(Cl)c(Cl)c(Cl)c(C#N)c1Cl | solubility (mole fraction): 0.0155

Origin of the recorded values: BigSolDB 2.1
